Molecular target: Serine/threonine-protein kinase SIK1 (Homo sapiens);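 also: reported as mean inhibition, part of the GSK PKIS screen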
Settings: at 0.1 µM
property.measured: inhibition

INSERT INTO assay_data (sample_smiles, result) VALUES
  ('C[C@@H](Oc1cc(-n2cnc3ccc(OCC4CCN(C)CC4)cc32)sc1C(N)=O)c1ccccc1Cl', '11.5%'),
  ('N#Cc1ccc(Oc2nccc(-c3c(-c4ccc(F)cc4)ncn3C3CCNCC3)n2)cc1', '5.1%'),
  ('COc1cccc(-n2cnc3c(N/N=C/c4ccncc4)ncnc32)c1', '1.88%'),
  ('CS(=O)(=O)CCNCc1ccc(-c2ccc3ncnc(Nc4ccc(OCc5ccccc5)c(Br)c4)c3c2)o1', '2.19%'),
  ('NS(=O)(=O)c1ccc(N/N=C2\C(=O)Nc3ccc(-c4cnco4)cc32)cc1', '1.71%'),
  ('O=C1NC(=O)C(c2cccc(Cl)c2)=C1Nc1ccc(Cl)c(C(=O)O)c1', '4.05%'),
  ('NC(=O)c1cc(-c2ccncc2)cc(-c2ccccc2)c1N', '5.39%'),
  ('CCc1nccc2c1nc(-c1nonc1N)n2CC', '0.62%'),
  ('O=C(Nc1n[nH]c2cc(-c3cc(F)ccc3F)ccc12)C1CC1', '5.25%'),
  ('COc1cc2ncn(-c3cc(OCCc4ccccc4)c(C(N)=O)s3)c2cc1OC', '3.59%');

====

Test system: Platelet-derived growth factor receptor alpha (Homo sapiens), P16234 [D842V]
Sequence (P16234 whole entry D842V): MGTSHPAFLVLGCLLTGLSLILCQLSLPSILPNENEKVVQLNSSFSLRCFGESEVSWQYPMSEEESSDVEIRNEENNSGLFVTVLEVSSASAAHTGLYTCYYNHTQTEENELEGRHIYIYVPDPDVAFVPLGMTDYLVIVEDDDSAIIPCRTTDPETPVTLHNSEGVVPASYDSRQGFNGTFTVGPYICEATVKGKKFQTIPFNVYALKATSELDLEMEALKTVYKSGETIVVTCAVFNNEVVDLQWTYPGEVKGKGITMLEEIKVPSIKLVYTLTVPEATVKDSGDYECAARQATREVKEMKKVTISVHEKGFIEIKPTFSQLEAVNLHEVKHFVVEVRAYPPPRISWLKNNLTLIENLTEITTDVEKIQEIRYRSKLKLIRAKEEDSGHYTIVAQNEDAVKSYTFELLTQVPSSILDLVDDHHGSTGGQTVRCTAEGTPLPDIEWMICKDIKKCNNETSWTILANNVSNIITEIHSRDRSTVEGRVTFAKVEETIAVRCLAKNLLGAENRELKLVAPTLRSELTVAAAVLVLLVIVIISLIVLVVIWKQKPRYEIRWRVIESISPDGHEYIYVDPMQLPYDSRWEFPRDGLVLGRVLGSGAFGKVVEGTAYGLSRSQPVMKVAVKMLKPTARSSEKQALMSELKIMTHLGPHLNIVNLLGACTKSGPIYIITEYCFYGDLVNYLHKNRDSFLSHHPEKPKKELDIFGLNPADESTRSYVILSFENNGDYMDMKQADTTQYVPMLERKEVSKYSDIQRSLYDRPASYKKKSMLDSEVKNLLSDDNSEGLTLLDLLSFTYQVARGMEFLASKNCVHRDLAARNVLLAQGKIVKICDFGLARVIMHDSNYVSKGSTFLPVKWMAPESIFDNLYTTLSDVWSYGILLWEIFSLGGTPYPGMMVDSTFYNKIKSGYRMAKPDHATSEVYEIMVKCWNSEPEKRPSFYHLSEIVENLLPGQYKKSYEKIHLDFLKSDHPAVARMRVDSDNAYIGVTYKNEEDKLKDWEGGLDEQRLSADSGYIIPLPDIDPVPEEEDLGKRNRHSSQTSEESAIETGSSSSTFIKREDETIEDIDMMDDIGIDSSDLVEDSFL
Conditions: at 1 µM
Is inhibition at least 10%? Then met. If not, not met.

INSERT INTO measurements (sample_smiles, classification) VALUES
  ('CN(C)c1ccc2c(c1)/C(=C/Nc1ccc(S(N)(=O)=O)cc1)C(=O)N2', 'met'),
  ('O=C(Nc1n[nH]c2nc(-c3ccc(O)cc3)c(Br)cc12)C1CC1', 'met'),
  ('CS(=O)(=O)CCNCc1cc(-c2cc3c(Nc4ccc(OCc5cccc(F)c5)c(Cl)c4)ncnc3s2)cs1', 'not met'),
  ('COc1cc2ncn(-c3cc(OCc4cccs4)c(C(N)=O)s3)c2cc1OC', 'met'),
  ('Fc1ccc(-c2nc3n(c2-c2ccncc2)CCS3)cc1', 'not met'),
  ('CN1CCN(CCCNc2nc3ccc(Oc4ccc(NC(=O)Nc5cc(C(F)(F)F)ccc5F)cc4)cc3[nH]2)CC1', 'not met'),
  ('COC(=O)Nc1nc2ccc(Sc3ccc(NC(=O)Nc4cc(C(F)(F)F)ccc4F)cc3)cc2[nH]1', 'not met'),
  ('COc1cc(N2CCN(C(C)C)CC2)ccc1Nc1nc(Nc2ccc(F)cc2C(=O)NC[C@@H](O)CO)c2cc[nH]c2n1', 'not met'),
  ('COc1cc2ncn(-c3cc(OCc4ccccc4C(F)(F)F)c(C(C)=O)s3)c2cc1OC', 'met'),
  ('C#Cc1cccc(Nc2ncnc3ccc(OCCCCNCCS(C)(=O)=O)cc23)c1', 'met'),
  ('O=C(Nc1n[nH]c2cc(-c3cc(F)ccc3F)ccc12)C1CC1', 'not met'),
  ('COc1cc(C)c(N(C)C(=O)CN(C)C)cc1Nc1nc(Nc2cccc(F)c2C(N)=O)c2cc[nH]c2n1', 'not met'),
  ('Cc1ccc(C(=O)NC(C)C)cc1-c1ccc(C(=O)NCC2CC2)cc1', 'not met'),
  ('NC(=O)Cc1ccccc1Oc1nccc(-c2c(-c3ccc(F)cc3)ncn2C2CCNCC2)n1', 'not met'),
  ('c1ccc(-c2n[nH]cc2-c2ccnc(-c3ccc(OCCN4CCOCC4)cc3)c2)nc1', 'met'),
  ('COc1cccc(-n2cnc3c(N/N=C/c4ccncc4)ncnc32)c1', 'met');
